Biological target: EGFR L858R/T790M/C797S (Homo sapiens, UniProt P00533, C797S/L858R/T790M)
Sequence (P00533 25-1210 T790M/C797S/L858R): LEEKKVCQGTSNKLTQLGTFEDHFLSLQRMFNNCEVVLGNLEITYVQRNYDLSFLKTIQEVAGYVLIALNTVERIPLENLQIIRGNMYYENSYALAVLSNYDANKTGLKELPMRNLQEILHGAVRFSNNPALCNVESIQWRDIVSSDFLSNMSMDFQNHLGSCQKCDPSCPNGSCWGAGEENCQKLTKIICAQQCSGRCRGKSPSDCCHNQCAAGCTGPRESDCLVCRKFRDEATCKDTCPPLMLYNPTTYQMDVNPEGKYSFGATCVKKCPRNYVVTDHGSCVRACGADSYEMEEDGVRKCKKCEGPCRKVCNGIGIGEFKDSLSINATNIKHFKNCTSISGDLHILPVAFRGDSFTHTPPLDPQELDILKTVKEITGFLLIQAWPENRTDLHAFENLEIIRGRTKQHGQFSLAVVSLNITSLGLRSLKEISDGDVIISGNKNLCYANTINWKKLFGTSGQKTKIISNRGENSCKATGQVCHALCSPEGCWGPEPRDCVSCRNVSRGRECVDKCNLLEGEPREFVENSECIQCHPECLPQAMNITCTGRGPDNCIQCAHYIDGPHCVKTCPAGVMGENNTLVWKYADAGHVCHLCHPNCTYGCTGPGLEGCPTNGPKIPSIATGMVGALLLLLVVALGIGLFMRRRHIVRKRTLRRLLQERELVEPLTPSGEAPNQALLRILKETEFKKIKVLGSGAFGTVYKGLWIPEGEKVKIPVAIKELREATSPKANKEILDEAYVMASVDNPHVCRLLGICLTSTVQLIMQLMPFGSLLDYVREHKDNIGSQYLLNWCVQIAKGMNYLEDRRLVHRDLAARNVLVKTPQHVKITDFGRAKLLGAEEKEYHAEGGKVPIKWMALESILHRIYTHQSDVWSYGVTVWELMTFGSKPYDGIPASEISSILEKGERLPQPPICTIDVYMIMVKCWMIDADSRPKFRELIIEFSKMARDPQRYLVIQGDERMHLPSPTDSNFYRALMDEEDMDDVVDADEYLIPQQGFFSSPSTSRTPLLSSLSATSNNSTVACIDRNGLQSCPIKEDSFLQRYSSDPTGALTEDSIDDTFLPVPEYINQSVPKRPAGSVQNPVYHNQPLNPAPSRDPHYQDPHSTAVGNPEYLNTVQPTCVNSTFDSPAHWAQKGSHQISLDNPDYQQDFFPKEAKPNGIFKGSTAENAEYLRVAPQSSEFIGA
Experiment: Biochemical EGFR kinase assay (Lance Ultra TR-FRET), triple mutant L858R/T790M/C797S
Conditions: ATP at Km; read-out: IC50 L858R/T790M/C797S, Km ATP
pIC50: −log10 of the molar value.
endpoint-name: pIC50

compound="CN(C)S(=O)(=O)c1ccc(-c2cnc(Nc3ccnc(-c4cnn(S(=O)(=O)C5CC5)c4)n3)cc2N[C@H]2CC[C@@H](C(C)(C)O)CC2)nc1 [Example 165]" endpoint_name=pIC50 readout_value=9.00
compound="CC(O)(c1ccc(-c2cnc(Nc3ccnc(-c4cnn(S(=O)(=O)C5CC5)c4)n3)cc2NC2CCC(CO)CC2)nc1)C(F)(F)F (stereo not drawn) [Example 231]" endpoint_name=pIC50 readout_value=9.40
compound="CC(C)(O)c1ccc(-c2cnc(Nc3ccnc(-c4cnn(S(=O)(=O)C5CC5)c4)n3)cc2NC2CCC(F)CC2)nc1 (stereo not drawn) [Example 174]" endpoint_name=pIC50 readout_value=8.96
compound="O=S(=O)(C1CC1)n1cc(-c2nccc(Nc3cc(N[C@H]4CC[C@@H](CO)CC4)c(-c4ccc(C(F)(F)CO)cn4)cn3)n2)cn1 [Example 244]" endpoint_name=pIC50 readout_value=9.70

A. CN1CCC(Oc2ccc(-c3cnc(Nc4ccnc(-c5cnn(S(=O)(=O)C6CC6)c5)n4)cc3N[C@H]3CC[C@@H](CO)CC3)nc2)CC1 [Example 251]
B. COC(c1ccc(-c2cnc(Nc3ccnc(-c4cnn(S(=O)(=O)C5CC5)c4)n3)cc2NC2CCC(C)(O)CC2)nc1)C(F)(F)F (stereo not drawn) [Example 260]
C. CC(C)(O)[C@H]1CC[C@@H](Nc2cc(Nc3ccnc(-c4cnn(S(=O)(=O)C5CC5)c4)n3)ncc2-c2ccc(S(C)(=O)=O)cn2)CC1 [Example 160]
[ask] Please rank these compounds by pIC50 in descending order. Returns: the labels arranged in the requested order.
[reply] A, C, B

1. O=S(=O)(C1CC1)n1cc(-c2nccc(Nc3cc(N[C@H]4CCC[C@H](CO)C4)c(-c4ccc(CC(F)(F)F)cn4)cn3)n2)cn1 [Example 222]
2. CN(C)C(=O)[C@H]1CC[C@@H](Nc2cc(Nc3ccnc(-c4cnn(S(=O)(=O)C5CC5)c4)n3)ncc2-c2ccc(C(C)(C)O)cn2)CC1 [Example 172]
3. CN(C)CCOc1ccc(-c2cnc(Nc3ccnc(-c4cnn(S(=O)(=O)C5CC5)c4)n3)cc2N[C@H]2CC[C@@](C)(O)CC2)nc1 [Example 208]
4. C[C@]1(O)CC[C@@H](Nc2cc(Nc3ccnc(-c4cnn(S(=O)(=O)C5CC5)c4)n3)ncc2-c2cccc(CC(F)(F)F)n2)CC1 [Example 293]
[ask] Reorder: pIC50, max to min. Answer format: the labels, in the requested order.
[reply] 3, 2, 4, 1
(3: 10.00, 2: 9.70, 4: 9.15, 1: 8.77)

* * *

Target: EGFR L858R/T790M/C797S (Homo sapiens, UniProt P00533, C797S/L858R/T790M)
Test: Biochemical EGFR kinase assay (Lance Ultra TR-FRET), triple mutant L858R/T790M/C797S
Conditions: IC50 L858R/T790M/C797S (nM) 100 μM ATP, 100 μM ATP
endpoint-name: IC50 (nM)

Please review the entries below; each comes with its answer.
smiles_code=COC1CN(c2ccc(-c3cnc(Nc4ccnc(-c5cnn(S(=O)(=O)C6CC6)c5)n4)cc3N[C@H]3CC[C@@H](CO)CC3)nc2)C1 endpoint_name=IC50 readout_value=1.1
smiles_code=CC(C)(O)[C@H]1CC[C@@H](Nc2cc(Nc3ccnc(-c4cnn(S(=O)(=O)C5CC5)c4)n3)ncc2-c2ccc(N3CCC(F)(F)CC3)nn2)CC1 endpoint_name=IC50 readout_value=4.1

a. CC(C)(O)[C@H]1CC[C@@H](Nc2cc(Nc3ccnc(-c4cnn(S(=O)(=O)C5CC5)c4)n3)ncc2-c2ccc(CO)cn2)CC1
b. CN(C)C[C@H]1CC[C@@H](Nc2cc(Nc3ccnc(-c4cnn(S(=O)(=O)C5CC5)c4)n3)ncc2-c2ccc(C(C)(C)O)nn2)CC1
c. C[C@]1(O)CC[C@@H](Nc2cc(Nc3ccnc(-c4cnn(S(=O)(=O)C5CC5)c4)n3)ncc2-c2ccc(C#N)cn2)CC1
d. CC(C)(O)c1cc(-c2cnc(Nc3ccnc(-c4cnn(S(=O)(=O)C5CC5)c4)n3)cc2N[C@H]2CC[C@@H](C(C)(C)O)CC2)ncc1F
[ask] Sort these molecules on IC50 so the largest reading comes first. Please list each label once, in the requested order.
[reply] d, a, c, b

* * *

Target: EGFR L858R/C797S (Homo sapiens, UniProt P00533, C797S/L858R)
Sequence (P00533 25-1210 C797S/L858R): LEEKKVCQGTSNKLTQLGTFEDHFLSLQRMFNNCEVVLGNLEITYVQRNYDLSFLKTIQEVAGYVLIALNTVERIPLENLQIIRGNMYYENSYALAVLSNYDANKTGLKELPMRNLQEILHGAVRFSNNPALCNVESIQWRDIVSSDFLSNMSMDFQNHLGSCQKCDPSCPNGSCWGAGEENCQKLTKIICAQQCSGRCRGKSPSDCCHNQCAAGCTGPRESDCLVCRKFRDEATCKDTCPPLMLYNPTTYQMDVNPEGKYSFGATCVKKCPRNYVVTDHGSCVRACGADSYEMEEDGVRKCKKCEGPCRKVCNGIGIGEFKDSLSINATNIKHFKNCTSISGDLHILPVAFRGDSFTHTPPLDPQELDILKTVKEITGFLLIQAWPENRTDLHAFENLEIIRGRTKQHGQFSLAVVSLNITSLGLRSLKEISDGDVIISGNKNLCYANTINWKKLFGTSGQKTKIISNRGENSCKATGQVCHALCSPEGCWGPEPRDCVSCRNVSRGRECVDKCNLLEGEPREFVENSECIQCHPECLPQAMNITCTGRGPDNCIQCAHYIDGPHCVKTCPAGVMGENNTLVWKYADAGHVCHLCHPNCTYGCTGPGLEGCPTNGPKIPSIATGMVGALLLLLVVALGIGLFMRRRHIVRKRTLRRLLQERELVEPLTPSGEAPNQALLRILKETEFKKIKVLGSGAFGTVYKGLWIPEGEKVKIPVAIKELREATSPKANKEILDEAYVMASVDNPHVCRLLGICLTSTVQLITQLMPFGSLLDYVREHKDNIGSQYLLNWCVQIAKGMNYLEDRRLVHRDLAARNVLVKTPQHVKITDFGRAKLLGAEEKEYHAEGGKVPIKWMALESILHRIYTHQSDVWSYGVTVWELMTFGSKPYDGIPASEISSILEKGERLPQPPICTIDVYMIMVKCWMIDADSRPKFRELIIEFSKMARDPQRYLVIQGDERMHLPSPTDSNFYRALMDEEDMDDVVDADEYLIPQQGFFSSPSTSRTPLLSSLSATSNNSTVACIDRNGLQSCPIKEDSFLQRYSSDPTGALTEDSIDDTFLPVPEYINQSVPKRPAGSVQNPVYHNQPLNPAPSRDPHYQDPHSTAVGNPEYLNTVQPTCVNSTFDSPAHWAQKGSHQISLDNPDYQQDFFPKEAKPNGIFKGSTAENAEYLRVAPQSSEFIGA
Assay: Biochemical EGFR kinase assay (Lance Ultra TR-FRET), double mutant L858R/C797S
Conditions: IC50 L858R/C797S, 100 μM ATP
pIC50: −log10 of the molar value.
endpoint-name: pIC50

smiles_code=CC(F)(F)c1ccc(-c2cnc(Nc3ccnc(-c4cnn(S(=O)(=O)C5CC5)c4)n3)cc2N[C@H]2CC[C@@](C)(O)CC2)nc1 readout_value=7.72

A. CN(C)c1ccnc(-c2cnc(Nc3ccnc(-c4cnn(S(=O)(=O)C5CC5)c4)n3)cc2N[C@H]2CC[C@@](C)(O)CC2)c1
B. CN1CCN(C(=O)c2ccc(-c3cnc(Nc4ccnc(-c5cnn(S(=O)(=O)C6CC6)c5)n4)cc3N[C@H]3CC[C@@H](CN(C)C)CC3)nc2)CC1
[ask] Select one. Lower pIC50: A or B Answer with the label corresponding to your selection.
[reply] A
(A: 7.28, B: 9.00)

* * *

Target: EGFR L858R/T790M/C797S (Homo sapiens, UniProt P00533, C797S/L858R/T790M)
Assay: Biochemical EGFR kinase assay (Lance Ultra TR-FRET), triple mutant L858R/T790M/C797S
Settings: IC50 L858R/T790M/C797S (nM) 100 μM ATP, 100 μM ATP
endpoint-name: IC50 (nM)

Solved entries (count: 8):
compound="CN(C)Cc1cccc(-c2cnc(Nc3ccnc(-c4cnn(S(=O)(=O)C5CC5)c4)n3)cc2N[C@H]2CC[C@@](C)(O)CC2)n1 [Example 30]" endpoint_name=IC50 readout_value=0.1
compound="C[C@]1(O)CC[C@@H](Nc2cc(Nc3ccnc(-c4cnn(S(=O)(=O)C5CC5)c4)n3)ncc2-c2cc(N3CCC(F)(F)CC3)ccn2)CC1 [Example 102]" endpoint_name=IC50 readout_value=1
compound="CN1CCN(c2ccc(-c3cnc(Nc4ccnc(-c5cnn(S(=O)(=O)C6CC6)c5)n4)cc3N[C@H]3CC[C@@H](CO)CC3)nc2)CC1 [Example 85]" endpoint_name=IC50 readout_value=0.3
compound="C[C@]1(O)CC[C@@H](Nc2cc(Nc3ccnc(-c4cnn(S(=O)(=O)C5CC5)c4)n3)ncc2-c2ccc(N3CCC(F)(F)CC3)nn2)CC1 [Example 68]" endpoint_name=IC50 readout_value=0.8
compound="C[C@]1(O)CC[C@@H](Nc2cc(Nc3ccnc(-c4cnn(S(=O)(=O)C5CC5)c4)n3)ncc2-c2ccccn2)CC1 [Example 35]" endpoint_name=IC50 readout_value=0.3
compound="C[C@]1(O)CC[C@@H](Nc2cc(Nc3ccnc(-c4cnn(S(=O)(=O)C5CC5)c4)n3)ncc2-c2ccc(N3CC(F)(F)C3)nn2)CC1 [Example 66]" endpoint_name=IC50 readout_value=0.5
compound="Cc1ccc(-c2cnc(Nc3ccnc(-c4cnn(S(=O)(=O)C5CC5)c4)n3)cc2N[C@H]2CC[C@@](C)(O)CC2)nn1 [Example 52]" endpoint_name=IC50 readout_value=0.3
compound="CC(C)(O)c1cnc(-c2cnc(Nc3ccnc(-c4cnn(S(=O)(=O)C5CC5)c4)n3)cc2N[C@H]2CC[C@@H](CO)CC2)cn1 [Example 119]" endpoint_name=IC50 readout_value=0.2

a. C[C@]1(O)CC[C@@H](Nc2cc(Nc3ccnc(-c4cnn(S(=O)(=O)C5CC5)c4)n3)ncc2-c2cccnn2)CC1 [Example 42]
b. O=S(=O)(C1CC1)n1cc(-c2nccc(Nc3cc(N[C@H]4CC[C@@H](CO)CC4)c(-c4ccc(N5CCCC5)cn4)cn3)n2)cn1 [Example 81]
c. O=S(=O)(C1CC1)n1cc(-c2nccc(Nc3cc(N[C@H]4CC[C@](O)(CO)CC4)c(-c4ccccn4)cn3)n2)cn1 [Example 37]
[ask] Rank entries according to their IC50, from the largest number down. To answer, write out the labels according to the requested order.
[reply] b, c, a
(b: 6 nM, c: 0.3 nM, a: 0.1 nM)

A. CC(C)(O)c1ccnc(-c2cnc(Nc3ccnc(-c4cnn(S(=O)(=O)C5CC5)c4)n3)cc2N[C@H]2CC[C@@H](CO)CC2)c1 [Example 111]
B. CC(C)(O)[C@H]1CC[C@@H](Nc2cc(Nc3ccnc(-c4cnn(S(=O)(=O)C5CC5)c4)n3)ncc2-c2ccc(N3CCCC3)cn2)CC1 [Example 82]
[ask] Of A and B , which one carries the higher reported IC50? Which one? Tell me its label.
[reply] B
